Biological target: T1, Anti-CD28 Fab (SEQ ID NOs: 696, 697)
T1 construct: In the phage ELISA the Fab was biotinylated and captured on neutravidin coated plates
T1 sequence (VH, as listed by the source, chain 1 of 2): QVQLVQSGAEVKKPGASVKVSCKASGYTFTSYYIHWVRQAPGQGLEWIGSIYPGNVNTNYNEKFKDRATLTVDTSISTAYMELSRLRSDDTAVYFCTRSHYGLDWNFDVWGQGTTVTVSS
T1 sequence (VL, as listed by the source, chain 2 of 2): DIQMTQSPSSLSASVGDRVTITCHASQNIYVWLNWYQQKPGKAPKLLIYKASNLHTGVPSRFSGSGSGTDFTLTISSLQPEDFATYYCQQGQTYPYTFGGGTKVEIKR
Experiment: phage ELISA on captured anti-CD28 Fab; competitor: CD28 antigen pre-incubated in the well
Where no end group is shown, it is not given here.
ENDPOINT: Anti-CD28 Fab signal in the presence of CD28
Write the number on its own, no unit after it.

Prompt: Would you mind telling me what Anti-CD28 Fab signal in the presence of CD28 value was observed for YCAGHSMEYMAKCL (cysteine pairing not given here; also: fused to phage pIII, not shown: pIII filament protein of the bacteriophage to which the peptide is fused) [Phage-885] ?
Completion: 0.07

Prompt: Here is the next binder: YCDGHLVEYRGKCL (cysteine pairing not given here; also: fused to phage pIII, not shown: pIII filament protein of the bacteriophage to which the peptide is fused) [Phage-882]
Completion: 0.07

Prompt: Here is the next binder: YCDGHSWEYMEKCL (cysteine pairing not given here; also: fused to phage pIII, not shown: pIII filament protein of the bacteriophage to which the peptide is fused) [Phage-891]
Completion: 0.12
